Assay: Largest Soluble Hydrocarbon (LSH)
Format: physicochemical
Details: 23° C.; test material to hydrocarbon ratio approximately 1:1 to 1:2 by weight; no haze to the naked eye
Protocol: Largest Soluble Hydrocarbon (LSH): The LSH of each hydrofluorothioether and competitive example was determined by mixing the compound with hydrocarbons of varying molecular weight (CnH2n+2, where n=9 to 24) in a test material to hydrocarbon ratio of approximately 1:1 to 1:2 by weight at room temperature (23° C.) and at 50° C. […] A larger value of n is interpreted herein to indicate a greater ability of the hydrofluorothioether to clean hydrocarbons. […]
measuredParameter: LSH (n in CnH2n+2)

                                   compound  result
0  COC(F)(F)C(F)(F)C(F)(F)F [CE2, CF3(CF2)2—O—CH3]      10
1                 FC(F)(F)CC(F)(F)CCl [CE5]      14
2  CSC(F)(F)C(F)(F)C(F)(F)C(F)(F)F [Example 1, n-C4F9—S—CH3]      18
3  CSC(F)(C(F)(F)F)C(F)(F)F [Example 2, perfluoroisopropyl methyl thioether]      18
4  COC(F)(F)C(F)(F)C(F)(F)C(F)(F)F [CE1, n-C4F9—O—CH3]       9
